# SYSTEM_NAME: human recombinant MC4R (CHO-K1/Gα15 stable cell line, GenScript) (human, UniProt P32245 1-332)
# Sequence (P32245 whole entry): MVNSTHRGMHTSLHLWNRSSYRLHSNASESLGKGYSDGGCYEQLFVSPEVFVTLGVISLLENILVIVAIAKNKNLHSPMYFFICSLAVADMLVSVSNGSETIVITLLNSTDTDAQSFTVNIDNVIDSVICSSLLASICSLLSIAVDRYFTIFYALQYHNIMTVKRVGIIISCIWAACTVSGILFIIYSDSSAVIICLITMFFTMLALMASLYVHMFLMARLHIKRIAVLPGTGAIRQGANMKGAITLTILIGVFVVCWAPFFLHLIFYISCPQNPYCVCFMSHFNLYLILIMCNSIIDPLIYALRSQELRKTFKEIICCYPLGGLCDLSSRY
# MEASUREMENT_NOTES: cell-based or functional assay
Starred links: 1 amine or outer side, 2 acyl side, 3 side chain; linkers in the order of their positions; H or OH if unused. Positions of bridges follow the written chain, without caps; N, C: chain ends. Non-standard residues stand in square brackets, D forms with d. dTyr(Me) = O-methyl-D-tyrosine, COc1ccc(C[C@@H](N[*:1])C(=O)[*:2])cc1; Lys(N3) = [N-]=[N+]=NCCCC[C@H](N)C(=O)O; NMeH = CN[C@@H](Cc1c[nH]cn1)C(=O)O; NMeR = CN[C@@H](CCCNC(=N)N)C(=O)O; hArg = N=C(N)NCCCC[C@H](N)C(=O)O; R5 = C=CCCC[C@@](C)(N)C(=O)O; S5 = C=CCCC[C@](C)(N)C(=O)O; Hpra = C#CCC[C@H](N)C(=O)O; Nle = CCCC[C@H](N)C(=O)O; Pra = C#CC[C@H](N)C(=O)O
Labelling: MC4R IC50 reported below 0.07 µM becomes Yes; at or above becomes No.

# count of solved cases: 8
{"BINDER": "Ac-[Nle][Lys(N3)]H[dTyr(Me)]RW[Pra]K-NH2 (triazole 2-7; not fully specified; printed as Ac-Nle-[Lys(N3)-His-DTyr(Me)-Arg-Trp-Pra]-Lys-NH2) [KR-058]", "CATEGORY_LABEL": "No"}
{"BINDER": "Ac-[Nle][Lys(N3)]H[dF][NMeR]W[Pra]-NH2 (triazole 2-7) [KR-045]", "CATEGORY_LABEL": "Yes"}
{"BINDER": "Ac-[Nle][Pra]H[dF]RW[Lys(N3)]K-NH2 (triazole 2-7; not fully specified; printed as Ac-Nle-[Pra-His-DPhe-Arg-Trp-Lys(N3)]-Lys-NH2) [KR-067]", "CATEGORY_LABEL": "Yes"}
{"BINDER": "Ac-MEHFRWGKPV-NH2 [KR-003]", "CATEGORY_LABEL": "Yes"}
{"BINDER": "Ac-[Nle][Lys(N3)]H[dF]RW[Hpra]K-NH2 (triazole 2-7; not fully specified; printed as Ac-Nle-[Lys(N3)-His-DPhe-Arg-Trp-HPra]-Lys-NH2) [KR-066]", "CATEGORY_LABEL": "No"}
{"BINDER": "XXHFRWX (Ac-Nle-[Dab(N3)-His-DPhe-Arg-Trp-Dab(N3)] linkr: 3,3′-Oxybis[1-propyne]-NH2) [KR-042]", "CATEGORY_LABEL": "No"}
{"BINDER": "Ac-[Nle][Lys(N3)][NMeH][dF]RW[Pra]-NH2 (triazole 2-7) [KR-043]", "CATEGORY_LABEL": "Yes"}
{"BINDER": "Ac-[Nle][Lys(N3)]H[dF][hArg]W[Pra]K-NH2 (triazole 2-7; not fully specified; printed as Ac-Nle-[Lys(N3)-His-DPhe-HArg-Trp-Pra]-Lys-NH2) [KR-054]", "CATEGORY_LABEL": "Yes"}

Ask | Is it true that MC4R IC50 reported for Ac-[Nle][R5]H[dF]RW[S5]-NH2 (staple 2-7; SMILES CCCC[C@H](NC(C)=O)C(=O)N[C@]1(C)CCCC=CCCC[C@@](C)(C(N)=O)NC(=O)[C@H](Cc2c[nH]c3ccccc23)NC(=O)[C@H](CCCNC(=N)N)NC(=O)[C@@H](Cc2ccccc2)NC(=O)[C@H](Cc2c[nH]cn2)NC1=O) [KR-038] is less than 0.07 µM?
Reply | No

Values compiled from patent US20260152527A1.
